# SYSTEM NAME: BRD3 BD2 (Homo sapiens (Human), UniProt Q15059)
# Sequence (Q15059 306-415): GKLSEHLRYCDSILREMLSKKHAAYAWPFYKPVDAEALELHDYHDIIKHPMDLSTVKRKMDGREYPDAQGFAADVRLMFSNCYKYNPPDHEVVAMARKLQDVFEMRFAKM
# TEST PROTOCOL: FP protein saturation experiment with probe Cpd. No. 350
# Format: binding
# CONDITION PARAMETERS: probe 1.5 nM
METRIC NAME: pKd
Recall that pKd is obtained by taking minus log10 of the concentration measured in molar.

Problem: Please give the documented pKd of COc1cc2c(cc1-c1c(C)noc1C)[nH]c1nc(C(=O)NC3CCN(CCCNC(=O)c4ccc(-c5c6ccc(=O)cc-6oc6cc(O)ccc56)c(C(=O)O)c4)CC3)nc(-c3ccnc4ccc(F)cc34)c12
Solution: 9.22

* * *

Assignment: determine reported pKi for the given molecules.
# SYSTEM NAME: BRD3 BD1 (Homo sapiens (Human))
# Sequence (Q15059 34-140): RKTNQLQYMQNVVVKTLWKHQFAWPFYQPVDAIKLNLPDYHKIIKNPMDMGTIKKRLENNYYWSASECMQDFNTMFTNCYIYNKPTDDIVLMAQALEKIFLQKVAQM
# TEST PROTOCOL: FP competitive binding assay using Cpd. No. 350 as the probe
# CONDITION PARAMETERS: read-out: BRD3 BD1 Ki; FP, Cpd. No. 350 probe […]
Recall that pKi is obtained by taking minus log10 of the concentration measured in molar.

Problem: Please give the documented pKi of COc1cc2c(cc1-c1c(C)noc1C)[nH]c1nc(C)nc(-c3cccc(C(C)(C)O)c3)c12 [Cpd. No. 183]
Solution: 8.21

Problem: Please give the documented pKi of COc1cc2c(cc1-c1c(C)noc1C)[nH]c1ccnc(-c3c(C)nn(-c4ccccc4)c3C)c12 [Cpd. No. 352]
Solution: 7.50

Problem: Please give the documented pKi of CCc1noc(C)c1-c1cc2[nH]c3ccnc(Cl)c3c2cc1OC [RX-39]
Solution: 6.18

Problem: Please give the documented pKi of COc1cc2c(cc1-c1c(C)noc1C)[nH]c1nc(C)nc(-c3c(C)[nH]c4ccccc34)c12 [Cpd. No. 68]
Solution: 8.29

Problem: Please give the documented pKi of COc1cc2c(cc1-c1c(C)noc1C)[nH]c1ccnc(Cl)c12 [RX-3]
Solution: 6.84

Problem: Please give the documented pKi of COc1cc2c(cc1-c1c(C)noc1C)[nH]c1nc(C)nc(-c3ccc(C(=O)NC4CCN(C)CC4)c4ccccc34)c12 [Cpd. No. 196]
Solution: 8.01

Problem: Please give the documented pKi of COc1cc2c(cc1-c1c(C)noc1C)[nH]c1nc(C)nc(-c3cc(C(=O)NC4CCN(C5CCOCC5)CC4)[nH]c3C(C)C)c12 [Cpd. No. 212]
Solution: 7.99

Problem: Please give the documented pKi of COc1cc2c(cc1-c1c(C)noc1C)[nH]c1nc(C)nc(-c3ccc(C(=O)N4CCN(C)CC4)c4ccccc34)c12 [Cpd. No. 207]
Solution: 8.00

* * *

# SYSTEM NAME: BRD4 BD1 (Homo sapiens (Human), UniProt O60885)
# TEST PROTOCOL: OctetRED biolayer interferometry (BLI) binding assay
METRIC NAME: Kd (nM)
Your answer is read as nM, so omit the unit and give the number.

Problem: Please give the documented Kd of COc1cc2c(cc1-c1c(C)noc1C)[nH]c1ccnc(-c3c(C)n[nH]c3C)c12 [Cpd. No. 22]
Solution: 40

Problem: Please give the documented Kd of CCc1n[nH]c(CC)c1-c1nccc2[nH]c3cc(-c4c(C)noc4C)c(OC)cc3c12 [Cpd. No. 23]
Solution: 29

Problem: Please give the documented Kd of COc1cc2c(cc1-c1c(C)noc1C)[nH]c1ncnc(-c3c(C)[nH]c4ccccc34)c12 [Cpd. No. 44]
Solution: 27
